Entry source: patent US8772319B2

# AD50, dose attenuating cocaine-induced stimulation by 50% listing for each entry below
Tested on: male Swiss-Webster mice
assay_summary: Cocaine/compound interaction study on locomotor activity
Assay type: in vivo, mouse
measurement_context: Table 8; ligand-cocaine interaction study, 20 mg/kg cocaine IP
measure: AD50, dose attenuating cocaine-induced stimulation by 50% (mg/kg)

>>> reported("Fc1ccc(C(OCCCCN2CCN(c3ccccn3)CC2)c2ccc(F)cc2)cc1")
62.1
>>> reported("Fc1ccc(C(OCCCCN2CCNC(c3ccccc3)C2)c2ccc(F)cc2)cc1 (centres unmarked)")
50.27
>>> reported("Fc1ccc(C(OCCCCN2CCN(c3cccc(C(F)(F)F)c3)CC2)c2ccc(F)cc2)cc1")
18.35

---

target_or_test_system: human dopamine transporter (hDAT) (Homo sapiens, UniProt Q01959)
Sequence (Q01959 whole entry): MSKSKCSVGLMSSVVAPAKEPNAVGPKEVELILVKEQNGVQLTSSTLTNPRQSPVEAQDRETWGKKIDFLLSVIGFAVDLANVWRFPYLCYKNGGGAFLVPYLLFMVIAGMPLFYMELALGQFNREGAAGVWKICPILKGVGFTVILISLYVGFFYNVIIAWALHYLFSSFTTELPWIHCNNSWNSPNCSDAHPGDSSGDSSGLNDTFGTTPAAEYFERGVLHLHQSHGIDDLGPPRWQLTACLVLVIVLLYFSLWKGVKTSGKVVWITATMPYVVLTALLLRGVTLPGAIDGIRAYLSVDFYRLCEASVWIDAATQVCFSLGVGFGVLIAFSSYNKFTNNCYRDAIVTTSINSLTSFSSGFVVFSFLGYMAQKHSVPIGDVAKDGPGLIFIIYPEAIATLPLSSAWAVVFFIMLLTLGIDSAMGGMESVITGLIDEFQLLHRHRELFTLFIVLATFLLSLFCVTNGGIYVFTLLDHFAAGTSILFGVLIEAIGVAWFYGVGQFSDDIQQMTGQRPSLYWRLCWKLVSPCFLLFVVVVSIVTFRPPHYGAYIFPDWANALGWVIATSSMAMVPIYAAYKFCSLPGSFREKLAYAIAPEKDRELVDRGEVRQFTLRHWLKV
assay_summary: cell-based
measurement_context: Table 6; read-out: Reuptake Inhibition [3H]DA IC50
# IC50 listing for each entry below
measure: IC50

>>> reported("Fc1ccc(C(OCCCCN2CCNCC2)c2ccc(F)cc2)cc1")
"1000 nM"
>>> reported("O=C1CN(CCCCOC(c2ccc(F)cc2)c2ccc(F)cc2)CCN1")
"2290 nM"
>>> reported("O=[N+]([O-])c1ccc(S(=O)(=O)N2CCN(CCCCOC(c3ccc(F)cc3)c3ccc(F)cc3)CC2)cc1")
"4200 nM"

---

target_or_test_system: D2 receptor (Homo sapiens, UniProt P14416)
Sequence (P14416 whole entry): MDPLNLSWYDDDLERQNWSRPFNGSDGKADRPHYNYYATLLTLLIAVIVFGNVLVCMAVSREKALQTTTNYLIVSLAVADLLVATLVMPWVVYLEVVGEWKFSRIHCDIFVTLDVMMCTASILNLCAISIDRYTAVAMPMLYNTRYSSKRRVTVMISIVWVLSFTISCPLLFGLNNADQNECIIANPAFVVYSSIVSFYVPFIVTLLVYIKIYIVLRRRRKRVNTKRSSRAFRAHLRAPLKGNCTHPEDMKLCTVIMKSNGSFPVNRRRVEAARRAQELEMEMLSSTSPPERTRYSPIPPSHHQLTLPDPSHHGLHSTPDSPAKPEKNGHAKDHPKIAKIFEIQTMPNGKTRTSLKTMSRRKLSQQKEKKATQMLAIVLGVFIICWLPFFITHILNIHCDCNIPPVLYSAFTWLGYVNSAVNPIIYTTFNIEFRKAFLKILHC
assay_summary: cell-based
measurement_context: read-out: D2 Antagonist activity IC50
measure: IC50 (nM)

>>> reported("COc1ccccc1N1CCN(CCCCOC(c2ccc(F)cc2)c2ccc(F)cc2)CC1")
84.4
>>> reported("Fc1ccc(C(OCCCCN2CCN(c3ccccc3)CC2)c2ccc(F)cc2)cc1")
120
>>> reported("Fc1ccc(C(OCCCCN2CCNC(c3ccccc3)C2)c2ccc(F)cc2)cc1 (stereo not shown)")
164
>>> reported("O=C(c1ccccc1)N1CCN(CCCCOC(c2ccc(F)cc2)c2ccc(F)cc2)CC1")
183

---

target_or_test_system: human serotonin transporter (hSERT) (Homo sapiens, UniProt P31645)
Sequence (P31645 whole entry): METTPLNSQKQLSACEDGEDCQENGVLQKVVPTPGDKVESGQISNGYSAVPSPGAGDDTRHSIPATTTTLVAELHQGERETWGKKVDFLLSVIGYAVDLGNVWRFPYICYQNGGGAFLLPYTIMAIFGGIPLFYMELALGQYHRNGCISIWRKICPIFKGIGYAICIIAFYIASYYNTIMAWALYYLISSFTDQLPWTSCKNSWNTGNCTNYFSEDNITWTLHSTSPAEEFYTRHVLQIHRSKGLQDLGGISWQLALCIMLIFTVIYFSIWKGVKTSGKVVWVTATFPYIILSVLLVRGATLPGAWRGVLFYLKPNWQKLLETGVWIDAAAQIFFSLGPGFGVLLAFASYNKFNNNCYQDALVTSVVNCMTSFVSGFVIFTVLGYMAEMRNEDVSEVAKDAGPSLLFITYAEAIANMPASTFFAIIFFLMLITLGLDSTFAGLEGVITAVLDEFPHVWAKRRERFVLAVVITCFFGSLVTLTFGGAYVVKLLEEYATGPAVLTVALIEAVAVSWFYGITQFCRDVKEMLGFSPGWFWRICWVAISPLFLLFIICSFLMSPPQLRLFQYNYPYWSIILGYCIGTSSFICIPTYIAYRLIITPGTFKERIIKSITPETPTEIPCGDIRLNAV
assay_summary: biochemical
measurement_context: Table 4; [125I]RTI-55; read-out: SERT binding affinity Ki
pKi: −log10 of the molar value.
Label 1 when pKi is at or above 6; anything below gets 0.

>>> class("NCC1(c2ccccc2)CCN(CCCCOC(c2ccc(F)cc2)c2ccc(F)cc2)CC1 [Compound 21]")
1
>>> class("O=C(CCl)NCC1(c2ccccc2)CCN(CCCCOC(c2ccc(F)cc2)c2ccc(F)cc2)CC1 [Compound 26]")
1
>>> class("O=C(NCC1(c2ccccc2)CCN(CCCCOC(c2ccc(F)cc2)c2ccc(F)cc2)CC1)Nc1ccc(F)cc1 [Compound 22]")
1
>>> class("CC(=O)NCC1(c2ccccc2)CCN(CCCCOC(c2ccc(F)cc2)c2ccc(F)cc2)CC1 [Compound 23]")
1
>>> class("O=C(CCN1C(=O)C=CC1=O)NCC1(c2ccccc2)CCN(CCCCOC(c2ccc(F)cc2)c2ccc(F)cc2)CC1 [Compound 25]")
0

---

# Discrimination Ratios (DR) [3H]DA reuptake/DAT binding listing for each entry below
target_or_test_system: human dopamine transporter (hDAT) (Homo sapiens, UniProt Q01959)
assay_summary: cell-based
measurement_context: Table 6
measure: Discrimination Ratios (DR) [3H]DA reuptake/DAT binding

>>> reported("Fc1ccc(C(OCCCCN2CCN(c3ccccn3)CC2)c2ccc(F)cc2)cc1 [Compound 39]")
46
>>> reported("Fc1ccc(C(OCCCCN2CCN(c3ccccc3F)CC2)c2ccc(F)cc2)cc1 [Compound 30]")
11.9
>>> reported("Fc1ccc(C(OCCCCN2CCN(c3ccc(F)cc3)CC2)c2ccc(F)cc2)cc1 [Compound 31]")
23
>>> reported("COc1ccccc1N1CCN(CCCCOC(c2ccc(F)cc2)c2ccc(F)cc2)CC1 [Compound 35]")
11.5
>>> reported("O=C(c1ccccc1)N1CCN(CCCCOC(c2ccc(F)cc2)c2ccc(F)cc2)CC1 [Compound 40]")
32.5
>>> reported("Fc1ccc(C(OCCCCN2CCNCC2)c2ccc(F)cc2)cc1 [Compound 3]")
1.7
>>> reported("O=[N+]([O-])c1ccc(S(=O)(=O)N2CCN(CCCCOC(c3ccc(F)cc3)c3ccc(F)cc3)CC2)cc1 [Compound 42]")
5.5
>>> reported("Fc1ccc(C(OCCCCN2CCN(c3cccc(C(F)(F)F)c3)CC2)c2ccc(F)cc2)cc1 [Compound 36]")
11.7

---

target_or_test_system: human dopamine transporter (hDAT) (Homo sapiens, UniProt Q01959)
assay_summary: cell-based
measurement_context: Table 4-1; read-out: Reuptake Inhibition [3H]DA IC50
pIC50: −log10 of the molar value.
measure: pIC50

>>> reported("CC(=O)NCC1(c2ccccc2)CCN(CCCCOC(c2ccc(F)cc2)c2ccc(F)cc2)CC1")
6.89
>>> reported("NCC1(c2ccccc2)CCN(CCCCOC(c2ccc(F)cc2)c2ccc(F)cc2)CC1")
6.81
>>> reported("O=C(CCl)NCC1(c2ccccc2)CCN(CCCCOC(c2ccc(F)cc2)c2ccc(F)cc2)CC1")
6.31
>>> reported("O=C(CCN1C(=O)C=CC1=O)NCC1(c2ccccc2)CCN(CCCCOC(c2ccc(F)cc2)c2ccc(F)cc2)CC1")
6.01

---

target_or_test_system: human dopamine transporter (hDAT) (Homo sapiens, UniProt Q01959)
assay_summary: cell-based
measurement_context: Reuptake Inhibition [3H]DA IC50, Table 6
measure: IC50

>>> reported("Fc1ccc(C(OCCCCN2CCNC(c3ccccc3)C2)c2ccc(F)cc2)cc1 (stereo not shown)")
"550 nM"
>>> reported("Fc1ccc(C(OCCCCN2CCN(Cc3ccc4c(c3)OCO4)CC2)c2ccc(F)cc2)cc1")
"1000 nM"
>>> reported("Fc1ccc(C(OCCCCN2CCN(c3ccccc3Cl)CC2)c2ccc(F)cc2)cc1")
"328 nM"
>>> reported("CC(=O)c1ccc(N2CCN(CCCCOC(c3ccc(F)cc3)c3ccc(F)cc3)CC2)cc1")
"3010 nM"

---

target_or_test_system: human dopamine transporter (hDAT) (Homo sapiens)
assay_summary: biochemical
Assay type: binding
measurement_context: Table 5
measure: Binding Ratios NET/DAT

>>> reported("O=[N+]([O-])c1ccc(N2CCN(CCCCOC(c3ccc(F)cc3)c3ccc(F)cc3)CC2)cc1 [Compound 38]")
4.0
>>> reported("CC(=O)c1ccc(N2CCN(CCCCOC(c3ccc(F)cc3)c3ccc(F)cc3)CC2)cc1 [Compound 37]")
4.1
>>> reported("Fc1ccc(C(OCCCCN2CCNC(c3ccccc3)C2)c2ccc(F)cc2)cc1 (centres unmarked) [Compound 28]")
49.9
>>> reported("Fc1ccc(C(OCCCCN2CCN(c3ccccn3)CC2)c2ccc(F)cc2)cc1 [Compound 39]")
12.3
>>> reported("Fc1ccc(C(OCCCCN2CCN(c3ccc(F)cc3)CC2)c2ccc(F)cc2)cc1 [Compound 31]")
7.8
>>> reported("Fc1ccc(C(OCCCCN2CCN(c3ccccc3F)CC2)c2ccc(F)cc2)cc1 [Compound 30]")
10.8
>>> reported("Fc1ccc(C(OCCCCN2CCNCC2)c2ccc(F)cc2)cc1 [Compound 3]")
5.7

---

target_or_test_system: human dopamine transporter (hDAT) (Homo sapiens, UniProt Q01959)
assay_summary: biochemical
Type: binding
Hi! Just check whether Ki is below 0.07 µM. Below gives T, equal or above gives F.

>>> class("O=C(NCC1CCCN(CCCCOC(c2ccc(F)cc2)c2ccc(F)cc2)C1)c1cccc(C(F)(F)F)c1 (centres unmarked) [Compound 11]")
"F"
>>> class("O=C(Nc1ccc(-c2ccccc2)cc1)N1CCN(CCCCOC(c2ccc(F)cc2)c2ccc(F)cc2)CC1 [Compound 8]")
"T"
>>> class("O=C(NCc1ccc(F)cc1)N1CCN(CCCCOC(c2ccc(F)cc2)c2ccc(F)cc2)CC1 [Compound 5]")
"F"
>>> class("O=C(NCC1CCCN(CCCCOC(c2ccc(F)cc2)c2ccc(F)cc2)C1)Nc1ccc(F)cc1 (centres unmarked) [Compound 12]")
"F"
>>> class("O=[N+]([O-])c1ccc(N2CCN(CCCCOC(c3ccc(F)cc3)c3ccc(F)cc3)CC2)cc1 [Compound 38]")
"T"

---

target_or_test_system: human dopamine transporter (hDAT) (Homo sapiens)
assay_summary: biochemical
Assay type: binding
measurement_context: Table 5
# Binding Ratios SERT/DAT listing for each entry below
measure: Binding Ratios SERT/DAT

>>> reported("Fc1ccc(C(OCCCCN2CCN(c3cccc(Cl)c3)CC2)c2ccc(F)cc2)cc1 [Compound 33]")
0.8
>>> reported("Fc1ccc(C(OCCCCN2CCN(c3ccccc3)CC2)c2ccc(F)cc2)cc1 [Compound 29]")
0.8
>>> reported("O=C(c1ccccc1)N1CCN(CCCCOC(c2ccc(F)cc2)c2ccc(F)cc2)CC1 [Compound 40]")
4.4
>>> reported("COc1ccccc1N1CCN(CCCCOC(c2ccc(F)cc2)c2ccc(F)cc2)CC1 [Compound 35]")
9.7
>>> reported("Fc1ccc(C(OCCCCN2CCN(c3cccc(C(F)(F)F)c3)CC2)c2ccc(F)cc2)cc1 [Compound 36]")
6.8
>>> reported("Fc1ccc(C(OCCCCN2CCN(Cc3ccc4c(c3)OCO4)CC2)c2ccc(F)cc2)cc1 [Compound 41]")
1.8
>>> reported("Fc1ccc(C(OCCCCN2CCNC(c3ccccc3)C2)c2ccc(F)cc2)cc1 (stereo not drawn) [Compound 28]")
19.6
>>> reported("CC(=O)c1ccc(N2CCN(CCCCOC(c3ccc(F)cc3)c3ccc(F)cc3)CC2)cc1 [Compound 37]")
1.6
>>> reported("Fc1ccc(C(OCCCCN2CCN(c3ccc(Cl)cc3)CC2)c2ccc(F)cc2)cc1 [Compound 34]")
0.7
>>> reported("O=[N+]([O-])c1ccc(N2CCN(CCCCOC(c3ccc(F)cc3)c3ccc(F)cc3)CC2)cc1 [Compound 38]")
2.6
>>> reported("O=[N+]([O-])c1ccc(S(=O)(=O)N2CCN(CCCCOC(c3ccc(F)cc3)c3ccc(F)cc3)CC2)cc1 [Compound 42]")
6.5
>>> reported("Fc1ccc(C(OCCCCN2CCN(c3ccc(F)cc3)CC2)c2ccc(F)cc2)cc1 [Compound 31]")
1.3
>>> reported("Fc1ccc(C(OCCCCN2CCN(c3ccccc3F)CC2)c2ccc(F)cc2)cc1 [Compound 30]")
0.8
>>> reported("Fc1ccc(C(OCCCCN2CCNCC2)c2ccc(F)cc2)cc1 [Compound 3]")
3.2
